Test system: MBNL1 exon 5 inclusion in DM1 myotubes
Experiment: Myotube splicing rescue assay (MBNL1 exon 5 inclusion)
Assay type: cell-based, human
Conditions: 10 μM, 48-hour incubation
result-type: MBNL1 % splicing rescue at 10 μM
Record the result as a number with its unit.

// below: answered molecules
molecule	MBNL1 % splicing rescue at 10 μM
NCCCOc1ccc2nc(-c3ccc(-c4nc5ccc(OCCCN)cc5[nH]4)cc3)[nH]c2c1 [Compound 201]	−13.2%
CN(C)CCCOc1ccc2nc(-c3ccc(-c4nc5ccc(OCCCN(C)C)cc5[nH]4)c(O)c3)[nH]c2c1 [Compound 256]	90.6%
CN1CCC(COc2ccc3nc(-c4ccc(-c5nc6ccc(OCC7CCN(C)CC7)cc6[nH]5)c(F)c4)[nH]c3c2)CC1 [Compound 315]	88.4%
O=C(NCCN1CCC(O)CC1)c1ccc2[nH]c(-c3ccc(-c4nc5ccc(C(=O)NCCN6CCC(O)CC6)cc5[nH]4)cc3)nc2c1 [Compound 146]	7.1%
O=C(NCCN1CCCCC1)c1ccc2nc(-c3ccc(-c4nc5ccc(C(=O)NCCN6CCCCC6)cc5[nH]4)cc3)[nH]c2c1 [Compound 41]	59.1%

// MBNL1 % splicing rescue at 10 μM lookup, key: CN(C)CCNC(=O)c1ccc(-c2nc3cc(-c4ccc5[nH]c(-c6ccc(SCCN(C)C)cc6)nc5c4)ccc3[nH]2)cc1 [Compound 384]
93.9%

// MBNL1 % splicing rescue at 10 μM lookup, key: CN(C)CCCCCCOc1ccc2nc(-c3ccc(-c4nc5ccc(OCCCCCCN(C)C)cc5[nH]4)cc3)[nH]c2c1 [Compound 212]
77.0%

// MBNL1 % splicing rescue at 10 μM lookup, key: CN(C)CCNC(=O)c1ccc2nc(-c3ccc4cc(-c5nc6ccc(C(=O)NCCN(C)C)cc6[nH]5)ccc4c3)[nH]c2c1 [Compound 462]
−2.7%

// MBNL1 % splicing rescue at 10 μM lookup, key: CN1CCC(NC(=O)c2ccc(-c3nc4cc(-c5ccc6[nH]c(-c7ccc(C(=O)NC8CCN(C)CC8)cc7)nc6c5)ccc4[nH]3)cc2)CC1 [Compound 338]
−5.3%

// MBNL1 % splicing rescue at 10 μM lookup, key: CN1CCC[C@H]1COc1ccc(-c2nc3cc(-c4ccc5[nH]c(-c6ccc(O)cc6)nc5c4)ccc3[nH]2)cc1 [Compound 357]
66.0%

* * *

Test system: MBNL1 exon 5 inclusion in DM1 myotubes
Experiment: Myotube splicing rescue assay (MBNL1 exon 5 inclusion)
Format: cell-based, human
Details: 10 μM, 48-hour incubation
So basically, if MBNL1 % splicing rescue at 10 μM comes in under 30% it's Yes, and if it's 30% or more it's No.

Worked examples follow.
input-smiles	discrete-label
CN(C)CCNS(=O)(=O)c1ccc2nc(-c3ccc(-c4nc5ccc(S(=O)(=O)NCCN(C)C)cc5[nH]4)cc3)[nH]c2c1	Yes
CN(C)CCCNC(=O)c1ccc(-c2nc3cc(-c4ccc5[nH]c(-c6ccc(C(=O)NCCCN(C)C)cc6)nc5c4)ccc3[nH]2)cc1	Yes
CN(C)CCCOc1ccc(-c2nc3cc(-c4ccc5[nH]c(-c6ccc(OCCCN(C)C)cc6)nc5c4)ccc3[nH]2)cc1	No
CN(C)CCCOc1ccc2nc(-c3ccc(-c4nc5ccc(NC6=NCCN6C6=NCCN6)cc5[nH]4)cc3)[nH]c2c1	Yes
CN(C)CCCOc1cc2nc(-c3ccc(-c4nc5cc(Cl)c(OCCCN(C)C)cc5[nH]4)cc3)[nH]c2cc1Cl	Yes
c1cc(-c2nc3ccc(N4CCNCC4)cc3[nH]2)ccc1-c1nc2ccc(N3CCNCC3)cc2[nH]1	No
CC(C)N(CCNC(=O)c1ccc(-c2nc3cc(-c4ccc5[nH]c(-c6ccc(C(=O)NCCN(C(C)C)C(C)C)cc6)nc5c4)ccc3[nH]2)cc1)C(C)C	No
COc1cc(-c2nc3ccc(OCCCN(C)C)cc3[nH]2)c(O)cc1-c1nc2cc(OCCCN(C)C)ccc2[nH]1	Yes

For c1ccc(COc2ccc(-c3nc4cc(-c5ccc6[nH]c(-c7ccc(OCc8ccccn8)cc7)nc6c5)ccc4[nH]3)cc2)nc1 , is the recorded MBNL1 % splicing rescue at 10 μM below the cut-off of 30%?
Yes

For CN1CCC(COc2ccc3nc(-c4ccc(-c5nc6ccc(OCC7CCN(C)CC7)cc6[nH]5)cc4)[nH]c3c2)CC1 , is the recorded MBNL1 % splicing rescue at 10 μM below the cut-off of 30%?
No

For COc1cc(-c2nc3ccc(C(=O)OCCN(C)C)cc3[nH]2)c(OC)cc1-c1nc2ccc(C(=O)OCCN(C)C)cc2[nH]1 , is the recorded MBNL1 % splicing rescue at 10 μM below the cut-off of 30%?
No

For CN(C)CCCSc1ccc2nc(-c3ccc(-c4nc5ccc(SCCCN(C)C)cc5[nH]4)cc3)[nH]c2c1 , is the recorded MBNL1 % splicing rescue at 10 μM below the cut-off of 30%?
No
